# protocol-conditions: in n-pentanol, 293.15 K

compound: COCCOC(=O)C1=C(C)NC(C)=C(C(=O)OC(C)C)C1c1cccc([N+](=O)[O-])c1 (stereo unspecified)
solubility (mole fraction): 0.0116

----------
# protocol-conditions: in isopropanol, 288.15 K
experimental-endpoint: solubility (mole fraction)

molecule: COCCOC(=O)C1=C(C)NC(C)=C(C(=O)OC(C)C)C1c1cccc([N+](=O)[O-])c1 (stereo unspecified)
reported-result: 0.0147

----------
# protocol-conditions: in ethyl formate, 298.15 K
experimental-endpoint: solubility (mole fraction)

molecule: COCCOC(=O)C1=C(C)NC(C)=C(C(=O)OC(C)C)C1c1cccc([N+](=O)[O-])c1 (stereo unspecified)
reported-result: 0.00247

----------
# protocol-conditions: in ethyl formate, 303.15 K
experimental-endpoint: solubility (mole fraction)

compound: COCCOC(=O)C1=C(C)NC(C)=C(C(=O)OC(C)C)C1c1cccc([N+](=O)[O-])c1 (stereo unspecified)
experimental-endpoint: solubility (mole fraction)
reported-result: 0.00275

----------
# protocol-conditions: in sec-butanol, 278.15 K
experimental-endpoint: solubility (mole fraction)

molecule: COCCOC(=O)C1=C(C)NC(C)=C(C(=O)OC(C)C)C1c1cccc([N+](=O)[O-])c1 (stereo unspecified)
experimental-endpoint: solubility (mole fraction)
reported-result: 0.00977

----------
# protocol-conditions: in isopropanol, 283.15 K
experimental-endpoint: solubility (mole fraction)

compound: COCCOC(=O)C1=C(C)NC(C)=C(C(=O)OC(C)C)C1c1cccc([N+](=O)[O-])c1 (stereo unspecified)
reported-result: 0.0132

----------
# protocol-conditions: in n-butanol, 303.15 K

molecule: COCCOC(=O)C1=C(C)NC(C)=C(C(=O)OC(C)C)C1c1cccc([N+](=O)[O-])c1 (stereo unspecified)
solubility (mole fraction): 0.0177

----------
# protocol-conditions: in ethyl acetate, 303.15 K

molecule: COCCOC(=O)C1=C(C)NC(C)=C(C(=O)OC(C)C)C1c1cccc([N+](=O)[O-])c1 (stereo unspecified)
solubility (mole fraction): 0.00248

----------
# protocol-conditions: in THF, 278.15 K

compound: COCCOC(=O)C1=C(C)NC(C)=C(C(=O)OC(C)C)C1c1cccc([N+](=O)[O-])c1 (stereo unspecified)
solubility (mole fraction): 0.0141

----------
# protocol-conditions: in methanol, 298.15 K

compound: COCCOC(=O)C1=C(C)NC(C)=C(C(=O)OC(C)C)C1c1cccc([N+](=O)[O-])c1 (stereo unspecified)
solubility (mole fraction): 0.0259

----------
# protocol-conditions: in acetonitrile, 293.15 K

molecule: COCCOC(=O)C1=C(C)NC(C)=C(C(=O)OC(C)C)C1c1cccc([N+](=O)[O-])c1 (stereo unspecified)
solubility (mole fraction): 0.00267

----------
# protocol-conditions: in cyclohexanone, 313.15 K
experimental-endpoint: solubility (mole fraction)

compound: COCCOC(=O)C1=C(C)NC(C)=C(C(=O)OC(C)C)C1c1cccc([N+](=O)[O-])c1 (stereo unspecified)
reported-result: 0.0334

----------
# protocol-conditions: in ethyl acetate, 293.15 K

compound: COCCOC(=O)C1=C(C)NC(C)=C(C(=O)OC(C)C)C1c1cccc([N+](=O)[O-])c1 (stereo unspecified)
solubility (mole fraction): 0.00192

----------
# protocol-conditions: in cyclohexanone, 288.15 K

compound: COCCOC(=O)C1=C(C)NC(C)=C(C(=O)OC(C)C)C1c1cccc([N+](=O)[O-])c1 (stereo unspecified)
solubility (mole fraction): 0.0184
